# TEST_TARGET: Sodium-dependent dopamine transporter (Homo sapiens, UniProt Q01959)
# Sequence (Q01959 whole entry): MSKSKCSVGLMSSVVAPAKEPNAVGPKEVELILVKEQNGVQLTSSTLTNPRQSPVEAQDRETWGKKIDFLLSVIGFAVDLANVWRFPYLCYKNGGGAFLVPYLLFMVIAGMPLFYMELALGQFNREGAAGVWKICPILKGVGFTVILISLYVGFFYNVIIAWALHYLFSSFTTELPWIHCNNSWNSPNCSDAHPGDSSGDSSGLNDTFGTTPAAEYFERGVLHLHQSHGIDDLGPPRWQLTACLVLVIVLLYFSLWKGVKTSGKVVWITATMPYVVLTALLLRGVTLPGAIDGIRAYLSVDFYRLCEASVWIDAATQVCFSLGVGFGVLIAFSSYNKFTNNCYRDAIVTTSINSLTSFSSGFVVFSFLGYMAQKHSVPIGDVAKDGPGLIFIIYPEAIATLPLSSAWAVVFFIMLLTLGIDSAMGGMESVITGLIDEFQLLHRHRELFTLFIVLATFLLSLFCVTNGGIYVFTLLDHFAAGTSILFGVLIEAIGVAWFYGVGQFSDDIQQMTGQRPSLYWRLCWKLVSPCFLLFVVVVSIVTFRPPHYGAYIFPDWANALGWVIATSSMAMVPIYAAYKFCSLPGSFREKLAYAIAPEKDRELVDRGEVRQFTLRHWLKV
# EXPERIMENT_SUMMARY: GPCRScan assay: inhibition of DAT
# Design: radioligand conc. used [nm] 3.6 – 16.0, parental cells stable HEK
# CONDITION_DESCRIPTION: read-out: Ki
PROPERTY_MEASURED: Ki (µM)
Express it in µM; write the number only.

Task: Quick one: give measured Ki for COc1cc(C(=O)O)ncc1C#Cc1ccccc1NS(=O)(=O)c1cccc2c(N(C)C)ccnc12 [MSC-0516]
Result: 9.59

====

# TEST_TARGET: 5-hydroxytryptamine receptor 6 (Homo sapiens, UniProt P50406)
# Sequence (P50406 whole entry): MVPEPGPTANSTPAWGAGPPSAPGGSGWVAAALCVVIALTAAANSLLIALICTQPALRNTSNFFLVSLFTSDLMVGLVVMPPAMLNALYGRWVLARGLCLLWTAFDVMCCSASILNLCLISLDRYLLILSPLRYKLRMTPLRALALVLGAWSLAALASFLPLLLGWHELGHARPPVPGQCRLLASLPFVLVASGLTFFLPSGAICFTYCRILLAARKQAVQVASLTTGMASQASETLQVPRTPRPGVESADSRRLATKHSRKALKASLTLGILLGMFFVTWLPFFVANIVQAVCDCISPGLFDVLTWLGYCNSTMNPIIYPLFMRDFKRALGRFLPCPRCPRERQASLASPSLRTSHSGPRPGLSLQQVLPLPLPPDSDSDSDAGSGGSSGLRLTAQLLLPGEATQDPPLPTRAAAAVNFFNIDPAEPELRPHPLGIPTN
# EXPERIMENT_SUMMARY: GPCRScan assay: inhibition of 5-HT6
# Parameters: radioligand conc. used [nm] 2.0 – 4.0, parental cells stable HEK
# CONDITION_DESCRIPTION: read-out: Ki
PROPERTY_MEASURED: pKi
# pKi is unitless: minus log10 of the molar concentration; print number only

Task: Quick one: give measured pKi for COc1cc(C(=O)O)ncc1C#Cc1ccccc1NS(=O)(=O)c1cccc2c(N(C)C)ccnc12
Result: 5.82
